target: Sphingosine 1-phosphate receptor 1 (Homo sapiens, UniProt P21453); test: Agonist activity at human S1P1 receptor expressed in HEK293T cells assessed as stimulation of gamma-[35S]GTP binding after 30 mins by scintillation counting
Sequence (P21453 whole entry): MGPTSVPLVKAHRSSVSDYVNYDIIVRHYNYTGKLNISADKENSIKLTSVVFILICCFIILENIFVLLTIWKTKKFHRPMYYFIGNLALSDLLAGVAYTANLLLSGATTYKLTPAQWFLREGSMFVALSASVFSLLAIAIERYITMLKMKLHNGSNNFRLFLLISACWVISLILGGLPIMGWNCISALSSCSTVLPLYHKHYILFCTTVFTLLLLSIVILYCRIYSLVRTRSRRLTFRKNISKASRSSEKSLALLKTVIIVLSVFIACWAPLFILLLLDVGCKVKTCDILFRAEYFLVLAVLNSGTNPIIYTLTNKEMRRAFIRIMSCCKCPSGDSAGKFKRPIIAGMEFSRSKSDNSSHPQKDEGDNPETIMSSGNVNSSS
RECORDED_ENDPOINT: EC50 (nM)

{"columns": ["STRUCTURE_SMILES", "UNIT_SYMBOL", "EC50"],
 "data": [
  ["C[C@](N)(COP(=O)(O)O)C(=O)Nc1ccc(OCCc2ccc(-c3ccccc3)cc2)cc1", "nM", 0.52]
]}

A = C[C@](N)(COP(=O)(O)O)C(=O)Nc1ccc(OCCc2ccc(-c3ccccc3)cc2)c(C(F)(F)F)c1
B = C[C@](N)(COP(=O)(O)O)c1nc(-c2ccc(OCc3ccc(-c4ccccc4)cc3)cc2)c[nH]1
Q: Parameter metric = EC50. Return the lower-valued option from A and B . In your reply, give the label of the chosen option.
Ans: A
